Test system: Hedgehog pathway activation on 10T1/2/Smo#3 cells (C3H10T1/2 cells transfected with human Smoothened receptor)
Assay: Hedgehog pathway activation on 10T1/2/Smo#3 cells measured by ALP activity
Format: cell-based
Conditions: Mus musculus, C3H 10T1/2, 10T1/2/Smo#3 cells, hShh activation, ALP activity; read-out: 10T1/2/Smo#3 ALP activity (hShh Activation)
From the text: Hedgehog conditioned media was obtained by transfecting 293H cells with the full length gene encoding human Sonic Hedgehog (hShh) inserted into the pCMV6 expression vector, which contains a neomycin selectable marker and expresses the protein of interest with a C-terminal FLAG affinity tag. […] Their inhibitory activity against Hedgehog pathway activation on 10T1/2/Smo#3 cells as measured by ALP activity and Shh Light II reporter cells as measured by luciferase activity is shown in Table 1 below. […]
METRIC: IC50

Some molecules with known IC50 results, for comparison:
1. CC(C)(C)C(=O)Nc1cc(-c2cn3nc(Cc4ccccc4)ccc3n2)ccc1C(F)(F)F :: 0.3 to 3 µM
2. Cc1cc(Cl)c(-c2cn3nc(-c4cccnc4C(F)(F)F)ccc3n2)cc1NC(=O)C(C)(C)C :: < 0.3 µM

Consider the molecule Cc1ccc(-c2cn3nc(-c4ccc(C(=O)O)cc4C(F)(F)F)ccc3n2)cc1NC(=O)C(C)(C)C and give its measured IC50.
< 0.3 µM

Consider the molecule CC(C)(C)C(=O)Nc1cc(-c2cn3cc(-c4ccccc4F)ccc3n2)ccc1C(F)(F)F and give its measured IC50.
0.3 to 3 µM

Consider the molecule Cc1ccc(-c2cn3nc(N4CC[C@H](O)C4)ccc3n2)cc1NC(=O)C(C)(C)C and give its measured IC50.
< 0.3 µM

----------
test system: Hedgehog pathway activation on 10T1/2/Smo#3 cells (C3H10T1/2 cells transfected with human Smoothened receptor); assay: Hedgehog pathway activation on 10T1/2/Smo#3 cells measured by ALP activity; type: cell-based; settings: Mus musculus, C3H 10T1/2, 10T1/2/Smo#3 cells, hShh activation, ALP activity; read-out: 10T1/2/Smo#3 ALP activity (hShh Activation)
METRIC: IC50

1. CCOc1ccc2nc(-c3ccc(C(F)(F)F)c(Br)c3)cn2n1 :: 3 to 30 µM
2. Cc1c(-c2ccccc2)nc2ccc(N3CCN(C(=O)Cc4ccccc4)CC3)nn12 :: 0.3 to 3 µM
3. Cc1c(-c2ccccc2)nc2ccc(N3CCN(Cc4ccc(F)cc4)CC3)nn12 :: < 0.3 µM
4. COc1ccc2nc(-c3cc(NC(=O)C(C)(C)C)c(C)cc3C)cn2n1 :: 0.3 to 3 µM
5. Cc1ccc(-c2cn3nc(N4CCC(C(N)=O)CC4)ccc3n2)cc1NC(=O)C(C)(C)C :: < 0.3 µM

Next up:
Consider the molecule CC(C)(C)C(=O)Nc1cc(-c2cn3nc(-c4ccccc4C(F)(F)F)ccc3n2)ccc1C#N and give its measured IC50.
< 0.3 µM

----------
Parameter: pIC50. Scope: all listed entries.
test system: Hedgehog pathway activation on 10T1/2/Smo#3 cells (C3H10T1/2 cells transfected with human Smoothened receptor); assay: Hedgehog pathway activation on 10T1/2/Smo#3 cells measured by ALP activity; assay type: cell-based; conditions: Mus musculus, C3H 10T1/2, 10T1/2/Smo#3 cells, hShh activation, ALP activity; read-out: 10T1/2/Smo#3 ALP activity (hShh Activation)
pIC50: −log10 of the molar value.

Some compounds with known pIC50 results, for comparison:
1. Cc1c(-c2ccccc2)nc2ccc(N3CCNCC3)nn12 [Example 145] :: 4.52 to 5.52
2. CC(C)(C)C(=O)Nc1cc(-c2cn3nc(C(N)=O)ccc3n2)ccc1C(F)(F)F [Example 180] :: 4.52 to 5.52

Next up:
Consider the compound CC(C)(C)C(=O)Nc1cc(-c2cn3nc(N4CCC(O)CC4)ccc3n2)ccc1C1CC1 [Example 273] and give its measured pIC50.
5.52 to 6.52

Data provenance is patent US8871767B2.
